Where do the numbers come from? From paper PMC9352680.

# MEASURED_ON: T1, PUF4 RNA-binding domain (Saccharomyces cerevisiae, UniProt P25339 537-888)
# T1 sequence: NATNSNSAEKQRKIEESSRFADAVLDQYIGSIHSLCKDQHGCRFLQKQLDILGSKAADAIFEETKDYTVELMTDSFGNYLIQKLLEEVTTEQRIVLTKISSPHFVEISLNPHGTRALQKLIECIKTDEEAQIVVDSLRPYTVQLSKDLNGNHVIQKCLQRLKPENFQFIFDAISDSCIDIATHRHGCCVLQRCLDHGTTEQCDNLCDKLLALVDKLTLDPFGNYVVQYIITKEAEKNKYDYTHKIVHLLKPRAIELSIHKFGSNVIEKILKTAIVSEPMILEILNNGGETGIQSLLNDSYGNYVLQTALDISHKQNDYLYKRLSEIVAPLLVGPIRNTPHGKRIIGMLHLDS
# EXPERIMENT_NOTES: Mg; RNA-MaP; 20 mM Na-HEPES pH 7.4, 30 mM KOAc, 0.75 mM MgCl2, 0.1% Tween-20, 5% glycerol, 0.1 mg/mL BSA, 2 mM DTT; 25 C; 0.0125-409.6 nM protein
# CONDITION_DESCRIPTION: tags: N-His6-TEV cleaved; C-SNAP kept, Cy3B-labelled; label: tethered on chip by stalled RNA polymerase
pKd: −log10 of the molar value.
READOUT: pKd

{"columns": ["BINDER", "READOUT", "REPORTED_VALUE"],
 "data": [
  ["Ib_S2_P5E.1_K5.1_C5.1_H5.1_[G2A]_A5.1_F5.1_[T8G]_T5.1 (ssRNA) RNA: UUUGAUUAAUAUGAUAUCGUUCUUUCUUAUAUUAGUAUUCUUUCUCGAUAUCAUAUUAAUCUUU", "pKd", 6.16],
  ["Ic_S4_P4E.1_K4.1_C4.1_H4.1_A4.1_[T5A]_[A6C]_F4.1_[T8C]_T4.1 (ssRNA) RNA: UUUGACAACUGAUCGUUCUUUCUUGUAACUCAUUCUUUCUCGAUCAGUUGUCUUU", "pKd", 6.55],
  ["Ie_S2_P4E.1_K4.1_C4.1_H4.1_A4.1_F4.1_[+9TCTCT]_T4.1 (ssRNA) RNA: UUUGAUUAAUAUGAUAUCGUUCUUUCUUGUAUAUUAUCUCUUUCUUUCUCGAUAUCAUAUUAAUCUUU", "pKd", 9.42]
]}
